Ref: patent US7172907B2

assay: Hydrolytic stability in de-ionized water, fading of the dyes; format: physicochemical; conditions: pH=6.85, read-out: Hydrolytic stability: half-life (t1/2) for fading of the dyes
recorded_endpoint: half-life

-- ask Quick one: half-life for CN1/C(=C/C=C(C#N)/C=C/C2=[N+](CCCCCC(=O)O)c3ccccc3C2(C)C)C(C)(C)c2ccccc21 [meso-cyano Cy5] ?
-- reply > 150 h

###

experiment: Photostability: ethanolic solution left in the room light, fading of the dyes; format: physicochemical; details: read-out: Photostability: half-life (t1/2) for fading of the dyes
recorded_endpoint: half-life

-- ask For the molecule CN1/C(=C/C=C(C#N)/C=C/C2=[N+](CCCCCC(=O)O)c3ccccc3C2(C)C)C(C)(C)c2ccccc21 [meso-cyano Cy5] , what half-life is on record?
-- reply > 75 h
